tested on: HEK293; assay: Cytotoxicity against HEK293 cells after 48 hrs by resazurin assay; format: cell-based; details: Homo sapiens, HEK293, 48 h
READOUT TYPE: IC50

>>> result("Cc1[nH]c2ccccc2c1CCNCc1ccc(/C=C/C(=O)NO)cc1")
"0.07 to 0.18 µM"

The record that follows has no IC50 shown yet.
Q. Entry "O=C(/C=C/c1cccc(S(=O)(=O)Nc2ccccc2)c1)NO" : reported IC50 = ?
A. 1.4 to 2.4 µM

* * *

assay: Selectivity index, ratio of IC50 for human NFF cells to IC50 for transgenic GFP-fused Plasmodium falciparum NF54 […] gametocyte; assay type: toxicity; conditions: read-out: Ratio IC50
READOUT TYPE: selectivity ratio
Numbers only.

>>> numeric_value("O=C(CCCCCONC(=O)Nc1cccc2ccccc12)NO")
9

Q. May I ask what selectivity ratio has been recorded for "CC(C)(C)c1ccc(NC(=O)NOCCCCCC(=O)NO)cc1" ?
A. 2

* * *

Target: NAD-dependent protein deacetylase sirtuin-1 (Homo sapiens, UniProt Q96EB6)
Sequence (Q96EB6 whole entry): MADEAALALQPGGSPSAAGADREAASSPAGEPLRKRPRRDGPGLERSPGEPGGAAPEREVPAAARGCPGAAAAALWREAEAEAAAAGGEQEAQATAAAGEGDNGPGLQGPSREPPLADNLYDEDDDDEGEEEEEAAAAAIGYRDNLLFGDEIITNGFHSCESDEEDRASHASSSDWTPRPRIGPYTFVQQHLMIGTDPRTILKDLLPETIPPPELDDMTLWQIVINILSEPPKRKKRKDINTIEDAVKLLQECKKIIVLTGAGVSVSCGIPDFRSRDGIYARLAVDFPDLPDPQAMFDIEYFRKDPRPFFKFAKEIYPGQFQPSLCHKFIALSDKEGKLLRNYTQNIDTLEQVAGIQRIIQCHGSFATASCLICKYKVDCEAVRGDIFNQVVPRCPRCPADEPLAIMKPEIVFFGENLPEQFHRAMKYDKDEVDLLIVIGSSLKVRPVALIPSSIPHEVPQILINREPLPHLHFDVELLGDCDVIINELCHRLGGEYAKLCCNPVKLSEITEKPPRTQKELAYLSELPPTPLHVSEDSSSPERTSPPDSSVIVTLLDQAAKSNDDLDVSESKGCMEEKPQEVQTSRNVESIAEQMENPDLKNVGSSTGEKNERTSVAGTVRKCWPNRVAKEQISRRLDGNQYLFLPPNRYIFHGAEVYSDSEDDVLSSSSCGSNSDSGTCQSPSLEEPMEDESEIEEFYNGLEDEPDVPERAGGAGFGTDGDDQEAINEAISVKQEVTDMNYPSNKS
Assay: Inhibition of human SIRT1 in presence of NAD+ by fluorimetric method
READOUT TYPE: pIC50
Give bare numbers, as −log10 of the molar value.

Q. What value of pIC50 has been recorded for this entry: "O=C1c2cccc3cccc(c23)C(=O)N1CCCNCCCCCCCCCNCCCN1C(=O)c2cccc3cccc(c23)C1=O"
A. 4.01

* * *

tested on: Trypanosoma brucei brucei; assay: Antitrypanosomal activity against Trypanosoma brucei brucei measured after 22 hrs by fluorescence-based Alamar blue viability assay; assay type: functional, organism-based
Task for the reader: assign each of the following molecules its reported pIC50.
One number for each entry, as −log10 of the molar value.

Completed entries (count: 2):
>>> numeric_value("O=C(/C=C/c1cccc(S(=O)(=O)Nc2ccccc2)c1)NO")
5.59
>>> numeric_value("Cc1[nH]c2ccccc2c1CCNCc1ccc(/C=C/C(=O)NO)cc1")
5.77

Alright, here's another molecule for you.
Q. If you can, please state the reported pIC50 value of "CC(/C=C/C(=O)NO)=C\[C@@H](C)C(=O)c1ccc(N(C)C)cc1" .
A. 5.15
